Taken from ChEMBL document CHEMBL3286215.

pIC50: −log10 of the molar value.
Please consider the recorded pIC50 for Cholinesterase (Equus caballus, UniProt P81908) in what follows.

Q. What pIC50 value was documented for this compound, "CC(C)[C@@H]1CC[C@@]2(C)[C@H]1[C@H]1CC[C@@H]3[C@@]4(C)CC[C@H](OS(=O)(=O)O)C(C)(C)[C@@H]4CC[C@@]3(C)[C@]1(C)C[C@@H]2OS(=O)(=O)O" ?
A. 3.98

Q. What pIC50 value was documented for this compound, "C=C(C)[C@@H]1CC[C@@]2(C)[C@H]1[C@H]1CC[C@@H]3[C@@]4(C)CC[C@H](OS(=O)(=O)O)C(C)(C)[C@@H]4CC[C@@]3(C)[C@]1(C)C[C@@H]2OS(=O)(=O)O" ?
A. 4.19

Q. What pIC50 value was documented for this compound, "C=C(C=O)[C@@H]1CC[C@@]2(C)[C@H]1[C@H]1CC[C@@H]3[C@@]4(C)CC[C@H](OC(C)=O)C(C)(C)[C@@H]4CC[C@@]3(C)[C@]1(C)C[C@@H]2OC(C)=O" ?
A. < 3.70

Q. What pIC50 value was documented for this compound, "C=C(COS(=O)(=O)O)[C@@H]1CC[C@@]2(C)[C@H]1[C@H]1CC[C@@H]3[C@@]4(C)CC[C@H](OS(=O)(=O)O)C(C)(C)[C@@H]4CC[C@@]3(C)[C@]1(C)C[C@@H]2OS(=O)(=O)O" ?
A. < 3.70

Q. What pIC50 value was documented for this compound, "CC1(C)[C@@H](OS(=O)(=O)O)CC[C@]2(C)[C@H]3CC[C@@H]4[C@H]5[C@H]([C@@]6(C)CO6)CC[C@]5(C)[C@@H](OS(=O)(=O)O)C[C@@]4(C)[C@]3(C)CC[C@@H]12" ?
A. < 3.70

Q. What pIC50 value was documented for this compound, "C=C(C)[C@@H]1CC[C@@]2(C)[C@H]1[C@H]1CC[C@@H]3[C@@]4(C)CC[C@H](O)C(C)(C)[C@@H]4CC[C@@]3(C)[C@]1(C)C[C@@H]2OC(C)=O" ?
A. < 3.70

Q. What pIC50 value was documented for this compound, "C=C(C)[C@@H]1CC[C@@]2(C)[C@H]1[C@H]1CC[C@@H]3[C@@]4(C)CC[C@H](OC(=O)CCCCC(=O)O)C(C)(C)[C@@H]4CC[C@@]3(C)[C@]1(C)C[C@@H]2OC(=O)CCCCC(=O)O" ?
A. 4.09

Q. What pIC50 value was documented for this compound, "C=C(C)[C@@H]1CC[C@@]2(C)[C@H]1[C@H]1CC[C@@H]3[C@@]4(C)CC[C@H](OC(C)=O)C(C)(C)[C@@H]4CC[C@@]3(C)[C@]1(C)C[C@@H]2O" ?
A. < 3.70

###

study target: Cholinesterase (Equus caballus)
Sequence (P81908 whole entry): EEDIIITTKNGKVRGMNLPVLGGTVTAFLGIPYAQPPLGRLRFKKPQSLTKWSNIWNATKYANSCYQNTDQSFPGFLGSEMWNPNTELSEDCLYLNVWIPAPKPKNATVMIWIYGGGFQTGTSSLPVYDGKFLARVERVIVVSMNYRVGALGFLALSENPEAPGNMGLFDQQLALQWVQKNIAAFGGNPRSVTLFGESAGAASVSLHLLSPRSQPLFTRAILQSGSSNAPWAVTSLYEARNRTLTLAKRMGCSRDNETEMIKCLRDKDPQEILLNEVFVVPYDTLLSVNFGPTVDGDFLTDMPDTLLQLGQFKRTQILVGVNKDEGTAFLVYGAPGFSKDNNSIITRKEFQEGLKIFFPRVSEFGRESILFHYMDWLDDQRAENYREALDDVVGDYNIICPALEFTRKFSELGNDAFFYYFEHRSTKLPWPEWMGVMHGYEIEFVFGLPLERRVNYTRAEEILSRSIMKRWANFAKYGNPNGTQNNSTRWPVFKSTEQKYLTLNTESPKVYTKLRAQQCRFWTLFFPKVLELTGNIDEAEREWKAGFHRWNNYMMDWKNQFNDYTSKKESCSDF
assay method text: Inhibition of BChE in horse serum using butyrylthiocholine iodide as substrate at 200 uM after 120 mins by Ellman's method relative to control
observation type: inhibition (%)
Entry rule: numbers only, all in %.

Q. What inhibition value was documented for this compound, "C=C(C=O)[C@@H]1CC[C@]2(C)C(=O)C[C@]3(C)[C@H](CC[C@@H]4[C@@]5(C)CCC(=O)C(C)(C)[C@@H]5CC[C@]43C)[C@@H]12" ?
A. 86.5

Q. What inhibition value was documented for this compound, "C=C(COS(=O)(=O)O)[C@@H]1CC[C@@]2(C)[C@H]1[C@H]1CC[C@@H]3[C@@]4(C)CC[C@H](OS(=O)(=O)O)C(C)(C)[C@@H]4CC[C@@]3(C)[C@]1(C)C[C@@H]2OS(=O)(=O)O" ?
A. 50.2

Q. What inhibition value was documented for this compound, "C=C(C)[C@@H]1CC[C@@]2(C)[C@H]1[C@H]1CC[C@@H]3[C@@]4(C)CC[C@H](OC(=O)CCCCC(=O)O)C(C)(C)[C@@H]4CC[C@@]3(C)[C@]1(C)C[C@@H]2OC(=O)CCCCC(=O)O" ?
A. 89.2

###

Exercise: state measured inhibition for each of the compounds provided.
study target: Cholinesterase (Equus caballus) (UniProt P81908)
Sequence (P81908 whole entry): as above
assay method text: Inhibition of BChE in horse serum using butyrylthiocholine iodide as substrate at 200 uM after 120 mins by Ellman's method relative to control
Answer with the value and then the unit.

Q. What inhibition value was documented for this compound, "C=C(C=O)[C@@H]1CC[C@@]2(C)[C@H]1[C@H]1CC[C@@H]3[C@@]4(C)CC[C@H](O)C(C)(C)[C@@H]4CC[C@@]3(C)[C@]1(C)C[C@@H]2O" ?
A. 42%

Q. What inhibition value was documented for this compound, "C=CCCC(=O)O[C@H]1CC[C@]2(C)[C@H]3CC[C@@H]4[C@H]5[C@H](C(=C)C)CC[C@]5(C)[C@@H](OC(=O)CCC=C)C[C@@]4(C)[C@]3(C)CC[C@H]2C1(C)C" ?
A. 29.3%

Q. What inhibition value was documented for this compound, "C=C(CO)[C@@H]1CC[C@@]2(C)[C@H]1[C@H]1CC[C@@H]3[C@@]4(C)CC[C@H](OS(=O)(=O)O)C(C)(C)[C@@H]4CC[C@@]3(C)[C@]1(C)C[C@@H]2OS(=O)(=O)O" ?
A. 56.8%

Q. What inhibition value was documented for this compound, "C=C(C)[C@@H]1CC[C@@]2(C)[C@H]1[C@H]1CC[C@@H]3[C@@]4(C)CC[C@H](OC(C)=O)C(C)(C)[C@@H]4CC[C@@]3(C)[C@]1(C)C[C@@H]2OC(C)=O" ?
A. 35.2%

Q. What inhibition value was documented for this compound, "C=C(C)[C@@H]1CC[C@@]2(C)[C@H]1[C@H]1CC[C@@H]3[C@@]4(C)CC[C@H](OS(=O)(=O)O)C(C)(C)[C@@H]4CC[C@@]3(C)[C@]1(C)C[C@@H]2OS(=O)(=O)O" ?
A. 78.5%

Q. What inhibition value was documented for this compound, "CC1(C)[C@@H](OS(=O)(=O)O)CC[C@]2(C)[C@H]3CC[C@@H]4[C@H]5[C@H]([C@@]6(C)CO6)CC[C@]5(C)[C@@H](OS(=O)(=O)O)C[C@@]4(C)[C@]3(C)CC[C@@H]12" ?
A. 43.7%

Q. What inhibition value was documented for this compound, "C=C(C=O)[C@@H]1CC[C@@]2(C)[C@H]1[C@H]1CC[C@@H]3[C@@]4(C)CC[C@H](OC(C)=O)C(C)(C)[C@@H]4CC[C@@]3(C)[C@]1(C)C[C@@H]2OC(C)=O" ?
A. 45.8%

Q. What inhibition value was documented for this compound, "C=C(C)[C@@H]1CC[C@@]2(C)[C@H]1[C@H]1CC[C@@H]3[C@@]4(C)CC[C@H](OC(C)=O)C(C)(C)[C@@H]4CC[C@@]3(C)[C@]1(C)C[C@@H]2O" ?
A. 46.2%

Q. What inhibition value was documented for this compound, "C=C(C)[C@@H]1CC[C@@]2(C)[C@H]1[C@H]1CC[C@@H]3[C@@]4(C)CC[C@H](OC(=O)c5ccccc5)C(C)(C)[C@@H]4CC[C@@]3(C)[C@]1(C)C[C@@H]2OC(=O)c1ccccc1" ?
A. 39.9%

Q. What inhibition value was documented for this compound, "C=C(C)[C@@H]1CC[C@]2(C)C(=O)C[C@]3(C)[C@H](CC[C@@H]4[C@@]5(C)CCC(=O)C(C)(C)[C@@H]5CC[C@]43C)[C@@H]12" ?
A. 33.4%

###

assay method text: Selectivity index, ratio of IC50 for Pacific electric ray AChE to IC50 for BChE in horse serum
observation type: Ratio IC50
The answer should be a number; do not append a unit.

Q. What Ratio IC50 value was documented for this compound, "C=C(C)[C@@H]1CC[C@@]2(C)[C@H]1[C@H]1CC[C@@H]3[C@@]4(C)CC[C@H](OS(=O)(=O)O)C(C)(C)[C@@H]4CC[C@@]3(C)[C@]1(C)C[C@@H]2OS(=O)(=O)O" ?
A. 2.95

Q. What Ratio IC50 value was documented for this compound, "CC(C)[C@@H]1CC[C@@]2(C)[C@H]1[C@H]1CC[C@@H]3[C@@]4(C)CC[C@H](OS(=O)(=O)O)C(C)(C)[C@@H]4CC[C@@]3(C)[C@]1(C)C[C@@H]2OS(=O)(=O)O" ?
A. 0.56

###

study target: Acetylcholinesterase (Torpedo californica) (UniProt P04058)
Sequence (P04058 22-564 limits assumed): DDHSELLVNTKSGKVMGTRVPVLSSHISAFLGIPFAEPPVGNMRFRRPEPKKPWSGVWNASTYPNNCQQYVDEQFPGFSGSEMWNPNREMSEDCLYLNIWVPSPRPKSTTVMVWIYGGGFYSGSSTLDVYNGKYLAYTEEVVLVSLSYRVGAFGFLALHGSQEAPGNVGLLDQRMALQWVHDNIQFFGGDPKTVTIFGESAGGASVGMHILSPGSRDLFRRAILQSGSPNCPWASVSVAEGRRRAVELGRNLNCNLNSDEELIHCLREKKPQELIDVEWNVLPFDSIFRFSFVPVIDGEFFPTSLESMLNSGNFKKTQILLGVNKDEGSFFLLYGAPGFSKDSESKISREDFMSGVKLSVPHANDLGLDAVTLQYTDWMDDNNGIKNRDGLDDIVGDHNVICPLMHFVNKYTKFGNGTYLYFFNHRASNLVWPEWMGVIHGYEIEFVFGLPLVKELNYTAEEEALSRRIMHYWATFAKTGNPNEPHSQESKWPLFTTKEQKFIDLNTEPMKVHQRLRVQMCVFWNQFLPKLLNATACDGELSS
assay method text: Inhibition of Pacific electric ray AChE using acetylthiocholine iodide as substrate at 200 uM after 60 mins by Ellman's method relative to control
condition info: Tetronarce californica
yes (1) means recorded inhibition is 6% or above; no (0) means it is below 6%.

Q. Is it the case that "C=C(C)[C@@H]1CC[C@]2(C)C(=O)C[C@]3(C)[C@H](CC[C@@H]4[C@@]5(C)CCC(=O)C(C)(C)[C@@H]5CC[C@]43C)[C@@H]12" has inhibition reaching or exceeding 6%?
A. yes (1)

Q. Is it the case that "C=C(CO)[C@@H]1CC[C@@]2(C)[C@H]1[C@H]1CC[C@@H]3[C@@]4(C)CC[C@H](OS(=O)(=O)O)C(C)(C)[C@@H]4CC[C@@]3(C)[C@]1(C)C[C@@H]2OS(=O)(=O)O" has inhibition reaching or exceeding 6%?
A. yes (1)

Q. Is it the case that "CC(C)[C@@H]1CC[C@@]2(C)[C@H]1[C@H]1CC[C@@H]3[C@@]4(C)CC[C@H](O)C(C)(C)[C@@H]4CC[C@@]3(C)[C@]1(C)C[C@@H]2O" has inhibition reaching or exceeding 6%?
A. yes (1)

Q. Is it the case that "CC(C)[C@@H]1CC[C@@]2(C)[C@H]1[C@H]1CC[C@@H]3[C@@]4(C)CC[C@H](OS(=O)(=O)O)C(C)(C)[C@@H]4CC[C@@]3(C)[C@]1(C)C[C@@H]2OS(=O)(=O)O" has inhibition reaching or exceeding 6%?
A. yes (1)

Q. Is it the case that "C=C(C)[C@@H]1CC[C@@]2(C)[C@H]1[C@H]1CC[C@@H]3[C@@]4(C)CC[C@H](OC(=O)c5ccccc5)C(C)(C)[C@@H]4CC[C@@]3(C)[C@]1(C)C[C@@H]2OC(=O)c1ccccc1" has inhibition reaching or exceeding 6%?
A. no (0)

Q. Is it the case that "C=C(C)[C@@H]1CC[C@@]2(C)[C@H]1[C@H]1CC[C@@H]3[C@@]4(C)CC[C@H](OC(C)=O)C(C)(C)[C@@H]4CC[C@@]3(C)[C@]1(C)C[C@@H]2O" has inhibition reaching or exceeding 6%?
A. no (0)

Q. Is it the case that "C=C(C)[C@@H]1CC[C@@]2(C)[C@H]1[C@H]1CC[C@@H]3[C@@]4(C)CC[C@H](OS(=O)(=O)O)C(C)(C)[C@@H]4CC[C@@]3(C)[C@]1(C)C[C@@H]2OS(=O)(=O)O" has inhibition reaching or exceeding 6%?
A. yes (1)
